- System: Fer (mouse)
- experimental_protocol: phosphorylation enrichment, bacterial display (enrichment ratio); higher = better substrate or ligand; peptides without Tyr show the background
value_type: phosphorylation enrichment

EFGEVYKGTLK [EPHA2_Y628_M631T]: 0.448
KMKGDYFRSLA [YWHAG_Y130_Y133S_YF]: 0.436
QGIIIYKAAYF [SLC25A4_Y187_R188K]: 1.01
SWDKRYCEAGF [ITGA2B_Y197]: 0.531
WISNRYLDFSS [PRPH2_Y184]: 0.499
FSDPSYVKQME [CDC5L_Y464_YF]: 0.452
PQDVTYAQLHS [LILRB4_Y412]: 0.685
IDLEKYKLLPE [DHFR_Y157]: 0.51
GQDLFYEDEDL [PACS1_Y303]: 1.79
VREIRCQGGNR [VWF_Y1570_Y1570C]: 0.296

Would you mind giving phosphorylation enrichment for every sequence in the list below?
1. TFVVLYDAELT [ERCC4_Y581_R576T_YF]
2. ERTIEYLEEVV [HADHA_Y239_A244V]
3. FRQLQYCPSVE [CTNND2_Y508_YF]
4. LQTYHYHGHSM [PDHA1_Y289_R288H]

Outgoing:
1. 0.669
2. 0.523
3. 0.514
4. 0.75

====

Consider the following sequences; for each one, report its SH2 binding enrichment.
- target_or_test_system: c-Src SH2
- experimental_protocol: SH2 binding enrichment of the phosphorylated peptide, bacterial display (enrichment ratio); higher = better substrate or ligand; peptides without Tyr show the background

Field: example entries. Status: answers known.
TESALYGCTVV [KIAA1804_Y724_L729V]: 0.336
NNDLCYWVPEL [IARS1_Y434]: 0.514

Respectfully, I request SH2 binding enrichment for each entry included below.
1. GLCSYYETSKM [MAGED2_Y449_R446C]
2. NLMPAYYKCIQ [CYP21A2_Y190]
3. GNYSGYDDAWD [POLR1C_Y36]
4. VPVPGYTKVPE [SPRR3_Y146_L149V]
5. NKPTVYGVSPN [ABL1_Y226]
6. LVRPPYSFSAL [FOXI1_Y126_YF]

Outgoing:
1.2
0.522
5.84
0.56
0.501
0.478

Batch request: SH2 binding enrichment per item, same order as input.
1. REHTVYGEPRK [MAGEA4_Y240]
2. GESLTYVSTTF [C1orf162_Y120_A121V]
3. FPDFVYKCIKA [DPYSL2_Y479_R481C]
4. CEDGNYSPEIS [PTDSS1_Y424_T423N]
5. LPKVSCVKAID [GLRA1_Y307_Y307C]
6. SLIDGYFRLTA [JAK2_Y372_YF]
7. RAKLFYQEVPA [METTL11B_Y76]

Outgoing:
0.443
0.519
0.538
0.747
0.697
1.13
0.992

Below is a list of sequences. For each, state its recorded SH2 binding enrichment.
1. EFNINYNNEPP [THG1L_Y228_L232P]
2. RYMELYDLNRD [BBS2_Y648]
3. HCFAAYFQQGD [GPI_Y351_R347C]
4. DRFANYIEKVR [DES_Y122]
5. NREGVYTVFAP [TGFBI_Y537]
6. SVVVPYEPPEV [TP53_Y220]

Outgoing:
[0.453, 5.58, 0.673, 0.473, 0.604, 0.888]

Okay, here is my list. What is SH2 binding enrichment for each of these?
1. GQAPGYSYTAA [CYCS_Y47]
2. SVVMPYEPPEV [TP53_Y220_V218M]
3. VRLTEYPCAGL
4. VVSLFYGTALF [OR10C1_Y251_M246V]

Outgoing:
[0.791, 1.06, 0.572, 0.353]

// batch mode: one SH2 binding enrichment value per listed entry
1. LWQTIYNLEAE [TNNT2_Y251_S249T]
2. VAVVDYVEPSP [TXNRD2_Y70]
3. FEDTLYTVLHR [UNC13D_Y61_A59T_YF]
4. GYCSWYRGWAP [TIMP3_Y195]
5. IVEFAYNDKAI [PUM3_Y259_YF]

Outgoing:
[0.823, 0.446, 0.711, 0.502, 0.419]

====

Consider the following sequences; for each one, report its phosphorylation enrichment.
- target_or_test_system: EPHB2 (UniProt P29323)
- Sequence (P29323 whole entry, looked up): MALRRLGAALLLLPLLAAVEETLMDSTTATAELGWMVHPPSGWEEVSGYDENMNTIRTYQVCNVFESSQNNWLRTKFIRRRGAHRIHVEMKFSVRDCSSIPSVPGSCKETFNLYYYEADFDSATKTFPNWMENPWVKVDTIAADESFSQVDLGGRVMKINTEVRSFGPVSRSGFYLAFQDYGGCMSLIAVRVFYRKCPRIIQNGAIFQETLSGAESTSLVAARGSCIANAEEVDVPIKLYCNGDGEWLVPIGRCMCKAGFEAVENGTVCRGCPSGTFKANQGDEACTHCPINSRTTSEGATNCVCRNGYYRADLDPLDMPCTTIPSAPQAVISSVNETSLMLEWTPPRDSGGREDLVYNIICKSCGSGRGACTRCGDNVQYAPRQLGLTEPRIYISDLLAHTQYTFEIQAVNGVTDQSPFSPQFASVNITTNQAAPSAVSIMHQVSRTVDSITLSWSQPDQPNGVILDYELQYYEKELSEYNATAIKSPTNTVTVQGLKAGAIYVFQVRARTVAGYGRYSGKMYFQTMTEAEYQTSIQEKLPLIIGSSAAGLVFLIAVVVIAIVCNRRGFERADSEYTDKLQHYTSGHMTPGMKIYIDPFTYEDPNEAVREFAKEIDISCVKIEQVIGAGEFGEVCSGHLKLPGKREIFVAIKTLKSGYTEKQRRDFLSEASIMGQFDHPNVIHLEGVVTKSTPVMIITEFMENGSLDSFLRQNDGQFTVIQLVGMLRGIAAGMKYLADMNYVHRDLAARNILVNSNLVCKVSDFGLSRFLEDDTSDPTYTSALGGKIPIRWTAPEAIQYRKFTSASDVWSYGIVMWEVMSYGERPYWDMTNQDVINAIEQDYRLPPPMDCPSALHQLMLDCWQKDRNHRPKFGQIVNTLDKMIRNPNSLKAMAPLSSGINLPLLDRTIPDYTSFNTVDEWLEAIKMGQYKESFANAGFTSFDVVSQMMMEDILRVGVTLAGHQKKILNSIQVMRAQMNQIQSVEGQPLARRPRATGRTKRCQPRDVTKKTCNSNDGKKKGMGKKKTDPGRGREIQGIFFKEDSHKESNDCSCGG
- experimental_protocol: phosphorylation enrichment, bacterial display (enrichment ratio); higher = better substrate or ligand; peptides without Tyr show the background
Give bare numbers.

Batch of 7 sequences: report phosphorylation enrichment for each.
1. TNLVPYPCIHF [TUBA1A_Y262_R264C]
2. PGIRMYRVQFN [LRFN1_Y454_Q455R_YF]
3. GQAPGYSYTAA [CYCS_Y47]
4. SDFFAYSPVRE [H6PD_Y449_YF]
5. GMTLSYLFWEP [NDUFS8_Y74_R77W]
6. RGGWVYVLHPT [TRMT61A_Y67]
7. IYHLSYHHNCE [PDE6B_Y227_L228H]

Outgoing:
1. 0.557
2. 0.642
3. 0.5
4. 0.591
5. 0.737
6. 0.856
7. 0.602

====

- Tested on: AncSZ
- experimental_protocol: phosphorylation enrichment, bacterial display (enrichment ratio); higher = better substrate or ligand; peptides without Tyr show the background
Hi there, I'd appreciate the recorded phosphorylation enrichment for every entry that follows.
Give bare numbers.

Below are worked cases with known answers.
ADKSAYLMGPN [MYH7_Y386_L390P]: 0.636
EGVPLYESATT [DCC_Y809]: 1.12
FVSAAYVKKLD [SPTAN1_Y1020_P1017S]: 0.663
PVFQVYPLLNC [GATA1_Y78]: 1.7

Please give phosphorylation enrichment for each item listed below.
1. QYKGKYLAKHN [CASK_Y712_D710G]
2. SVMAEYGLFGA [VSX2_Y219_YF]

Outgoing:
[0.984, 0.737]

Incoming: Form field: reported phosphorylation enrichment of EYQLPYYNTVP [BMPR1A_Y457_M460T]
Outgoing: 4.46

====

- target_or_test_system: MERTK (UniProt Q12866)
- Sequence (Q12866 whole entry, looked up): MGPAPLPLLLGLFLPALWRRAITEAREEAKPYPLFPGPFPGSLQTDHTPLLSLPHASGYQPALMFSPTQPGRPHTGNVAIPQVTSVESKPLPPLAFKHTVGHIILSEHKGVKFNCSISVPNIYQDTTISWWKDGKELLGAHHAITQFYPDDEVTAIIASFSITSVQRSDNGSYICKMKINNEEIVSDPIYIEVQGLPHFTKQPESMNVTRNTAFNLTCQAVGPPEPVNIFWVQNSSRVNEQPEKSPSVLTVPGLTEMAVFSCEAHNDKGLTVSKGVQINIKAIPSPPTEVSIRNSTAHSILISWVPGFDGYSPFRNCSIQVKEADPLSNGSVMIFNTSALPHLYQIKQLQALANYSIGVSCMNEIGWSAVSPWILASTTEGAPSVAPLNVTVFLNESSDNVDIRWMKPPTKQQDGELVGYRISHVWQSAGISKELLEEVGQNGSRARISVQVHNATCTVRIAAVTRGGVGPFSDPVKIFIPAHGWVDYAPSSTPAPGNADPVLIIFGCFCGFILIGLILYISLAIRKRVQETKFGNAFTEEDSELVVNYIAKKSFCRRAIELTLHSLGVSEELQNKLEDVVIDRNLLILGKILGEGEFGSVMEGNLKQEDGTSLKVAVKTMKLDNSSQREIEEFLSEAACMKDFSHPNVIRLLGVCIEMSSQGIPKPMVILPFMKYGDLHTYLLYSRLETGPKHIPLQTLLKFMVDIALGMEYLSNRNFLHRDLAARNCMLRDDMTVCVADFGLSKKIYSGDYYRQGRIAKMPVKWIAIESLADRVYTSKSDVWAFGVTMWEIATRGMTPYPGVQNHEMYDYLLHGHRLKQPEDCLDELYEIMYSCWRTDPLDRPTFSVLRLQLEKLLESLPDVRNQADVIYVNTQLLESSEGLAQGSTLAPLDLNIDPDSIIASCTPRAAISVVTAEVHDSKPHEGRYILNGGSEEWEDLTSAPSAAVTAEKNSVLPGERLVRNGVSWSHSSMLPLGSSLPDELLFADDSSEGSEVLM
- experimental_protocol: phosphorylation enrichment, bacterial display (enrichment ratio); higher = better substrate or ligand; peptides without Tyr show the background
Binned phosphorylation enrichment; ranges: bin A (below 0.5), bin B (0.5 to below 0.6), bin C (0.6 or more)

# count of solved cases: 4
QYKGKYLAKHN [CASK_Y712_D710G]: bin C
TNQVIYLNPPI [DYNC1H1_Y970]: bin C
GYQPDYGQPAG [SYP_Y278]: bin A
KENITYMKREQ [L1TD1_Y24]: bin A

Incoming: Assign a bin to VKMLEYRGKDV [CASP5_Y74_L75R]
Outgoing: bin A

Incoming: Try QLYGAYLRIHA [BSCL2_Y213] next.
Outgoing: bin C

Incoming: Queued: NLMPAYYKCIQ [CYP21A2_Y190]
Outgoing: bin B

Incoming: Please give the result for ALKKPYGVLYK [RPF2_Y59] too.
Outgoing: bin A

Incoming: Now consider HKLSSYEFDFE [BTK_Y40_Y39S_YF] and answer again.
Outgoing: bin C

Incoming: Also check RALCHYFKLNI [ETV6_Y401_R399C_YF]
Outgoing: bin C

====

- target_or_test_system: c-Src SH2;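 note: peptide library displayed on the E. coli surface as eCPX fusions, selected cells deep-sequenced, score is each peptide's frequency after selection divided by its frequency in the input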
- experimental_protocol: SH2 binding enrichment of the phosphorylated peptide, bacterial display (enrichment ratio); higher = better substrate or ligand; peptides without Tyr show the background
Would you kindly list SH2 binding enrichment for each of these sequences?
Numbers only.

ADKSAYLMGPN [MYH7_Y386_L390P]: 0.482
AASTDYFKRGD [PDHA1_Y242_YF]: 0.416
PSELFYSKISP [SMG1_Y2254_G2258S_YF]: 3.17
TIAIRYSHSRR [ACOXL_Y260]: 0.495
STGWSYAGVAV [KLHL3_Y577_R575W]: 0.529
SDFFAYSPVRE [H6PD_Y449_YF]: 1.37
RHIEKYVDQGK [IRAK3_Y61]: 0.605
GQDLFYEDEDL [PACS1_Y303]: 0.588

Provide the reported SH2 binding enrichment of each entry below, same order.
1. VATRWYRSLEL [CDKL5_Y177_P180L]
2. WISNRYLDFSS [PRPH2_Y184]
3. RSAGKDDVYLI [MECP2_Y120_Y120D]
4. QDKDLYPCPGT [RLF_Y671_R668K]
5. LVQAEYWHDPI [PPT1_Y185]
6. LDCNEYFRDLN [HPRT1_Y198_Y195C]

Outgoing:
[0.373, 0.62, 0.581, 0.658, 1.11, 0.704]

Please state SH2 binding enrichment for every sequence in the list that follows.
1. ITKQEYDEAGP [ACTA1_Y364]
2. VLNHAYENLTR [SYNE2_Y3255_D3253H]
3. LRNIDYHRLDG [ATRX_Y2083_Y2084H]
4. GLRCGYGVLGG [KRTAP20-2_Y15_Y13C]
5. VHSGTYQVMVR [MYBPC3_Y1043_T1046M]
6. VKANTYEKFWL [GATM_Y100_P105L_YF]

Outgoing:
1: 7.7; 2: 10.5; 3: 0.714; 4: 0.52; 5: 1.56; 6: 0.794

Can you give me SH2 binding enrichment for all of these, one by one?
1. EAIMTYVSSFF [ACTN4_Y260_K255E_YF]
2. RRIHSYRGFLW [VHL_Y112_H115Y_YF]
3. DKANRYFSPNV [PTEN_Y336_F341V]
4. CHRQLYHKCTH [F12_Y58_Y53C]
5. ICFSDYVEVAD [PHACTR1_Y525_R521C]

Outgoing:
0.493
0.581
0.644
1.5
0.467
